System: TO-3-N3-2 (biotin conjugate)
Procedure details: pull-down binding Z-score (relative to library population); higher = stronger binding
Measurement parameters: RNA library: Library-2
Heads up, the class ranges for pull-down binding Z-score are low-valued (below -0.2), mid-valued (-0.2 to below 0.1), high-valued (0.1 or more)

>>> group("AUGGGAGCCCAGAGACGUCCUAU [hsa-mir-8074]")
"low-valued"
>>> group("CUGUUCAGGACAAUGCCGUUGUACA [hsa-mir-199a-2]")
"low-valued"
>>> group("UAAGGAGAGUGUUCAGACAUUCUUUAAGCUUG [DMSMaPseq_invitro_SARS-CoV-2_Motif_43]")
"low-valued"
>>> group("CUGGGUCCUCUGUGCAGGGUCUUACCCAG [hsa-mir-7850]")
"low-valued"
>>> group("UACCAGACUAUAACACAUAUAAAAAUACGUGUGAUGGUA [DMSMaPseq_invitro_SARS-CoV-2_Motif_221]")
"low-valued"
>>> group("CACGAGAUACCAGUGUGCACUUGUG [hsa-mir-542]")
"low-valued"
>>> group("UAUUUCAUAACAGAUGCGCAAACAGGUUCAUCUAAGUGUGUGUGUUCUGUUAUUGAUUUA")
"mid-valued"
>>> group("GGGGUGGCUGCGGGCCUUCUGAAGGUCUCCC [hsa-mir-662]")
"high-valued"
>>> group("CCAUGGGACAGGAACAGGAUACACCAUGG [IAV_invivo_PB1_2_Motif_4+IAV_invivo_PB1_2_Motif_4]")
"high-valued"
>>> group("CUGUCUGUUGUAUAAAAGAAAAGAUCG [hsa-mir-517a]")
"high-valued"
>>> group("GUUAUGUUGAUACACCUAAU [DMSMaPseq_invitro_SARS-CoV-2_Motif_328]")
"mid-valued"
>>> group("CCCAUAUGAACAUACAAUGCUAUGGA [hsa-mir-1-2]")
"low-valued"
>>> group("UCCCAGGAAAUUCACUUUAGGAAGUCCUAGGA [hsa-mir-5571]")
"low-valued"
>>> group("GCGCUACUGCAACGAUACCGAUACAAGCCUCACUCCCUUUCGGAUGGCUUAUUGUUGGCGUUGCACUUCUUGCUGUUUUUCAGAGCGC")
"high-valued"
>>> group("CCCAUAUGGAUUACUUUGCUAUGGA [hsa-mir-206]")
"mid-valued"
>>> group("GGCUGCUGGAUUGAAUUAGCUGCA [hsa-mir-1286]")
"high-valued"
>>> group("AUCGGUCGAGAGCGUCCUGGCUGAU [hsa-mir-3178]")
"low-valued"
>>> group("CGAGAAGCGCCUGCGUCUCCCAUUUUCG [hsa-mir-3944]")
"high-valued"
>>> group("CAUGCAAAUUACAUAUUUUGGAGGAAUACAAAUCCAAUUCAGUUGUCUUCCUAUUCUUUAUUUGACAUG")
"mid-valued"
>>> group("UGUACAGGUGAGCGGAUGUUCUGCACA [hsa-mir-3120]")
"high-valued"
>>> group("UAGUUUUAAGGAAUUA")
"low-valued"
>>> group("GCCGCCACUAGAGGAGCUACUGUAGUAAUUGGAACAAGCAAAUUCUAUGGUGGUUGGC")
"high-valued"
>>> group("GUUCCUGUGAUUUUUC [hsa-mir-198]")
"low-valued"
>>> group("CUGGGGGCAAUCAGUUUCUGG [IAV_invivo_HA_4_Motif_20+IAV_invivo_HA_4_Motif_20]")
"mid-valued"
>>> group("AUUUCCCAAAGUUGGGAAAA [hsa-mir-320b-2]")
"low-valued"
>>> group("GUUGAAGAAGUUACAAC")
"high-valued"
>>> group("GUGUAGGGGUGGCUACAC [hsa-mir-4717]")
"high-valued"
>>> group("UCCACCCCCAGAGAAUCCCUAAACCGGGGGUGGA [hsa-mir-1289-1]")
"low-valued"
>>> group("GGGGUCUUGCUCUAUU [hsa-mir-6088]")
"high-valued"
>>> group("GGACCUGAGCGCACCUGUUGUCU [SHAPE_invivo_SARS-CoV-2_Motif_351]")
"high-valued"
>>> group("GAGGCACUUAAAAUGACCAUGGCCUC [IAV_invivo_NS1_NEP_8_Motif_6+IAV_invivo_NS1_NEP_8_Motif_6]")
"high-valued"
>>> group("GCGGGGAACGAGGCCGUCGGCCAUUUUGUG [hsa-mir-632]")
"high-valued"
>>> group("UAUUCUCUAU [hsa-mir-2054]")
"low-valued"
>>> group("AACGUUAUGUGUGGUCUUUAACCUGUU [hsa-mir-6755]")
"high-valued"
>>> group("UCUAACUUUAGAGUCCAACCAACAGAAUCUAUUGUUAGA")
"mid-valued"
>>> group("CAGACUCUG [hsa-mir-4326]")
"low-valued"
>>> group("GACAGGGCAGAGGGUUGCGCCCCCUC [hsa-mir-6511b-1_6511b-2_6511a-2_6511a-3_6511a-1_6511a-4]")
"high-valued"
>>> group("GCAGUGUCGUGGUCACAGCUUGCUGC [hsa-mir-1273h]")
"mid-valued"
>>> group("CAGUGGUGCCAUCUCCCCUG [hsa-mir-5008]")
"low-valued"
>>> group("GCCAUCUGGUUGUGACAUCACUGAUGGC [hsa-mir-7155]")
"mid-valued"
>>> group("UGUUGACUGAAUAAUAAACA [hsa-mir-3139]")
"low-valued"
>>> group("AGAUAUAUAUAUACCUCAUAUGUAUAUGGUAUAC [hsa-mir-4777]")
"low-valued"
